Please provide measured Inhibition rate of each cytokine compared to CD150-stimulated EBV-t B cells (%) IL-13 for the entries that follow.
tested on: IL-13; test: Reduction of IL-13 secretion in activated B cells (ELISA); type: cell-based; conditions: 100 ng/me of peptide; EBV-infected B cells stimulated with anti-CD150; ELISA of culture supernatant

**Query** # Inhibition rate of each cytokine compared to CD150-stimulated EBV-t B cells (%) IL-13 lookup, item PSPRDGRTDG (SIS-1#6 peptide)
**Result** 29.4%

**Query** For the substance shown here, RDGRTDG (SIS-1#2 peptide) , give the reported Inhibition rate of each cytokine compared to CD150-stimulated EBV-t B cells (%) IL-13.
**Result** 23.8%

**Query** Would you kindly share the measured Inhibition rate of each cytokine compared to CD150-stimulated EBV-t B cells (%) IL-13 for PSPRDG (SIS-1#5 peptide) ?
**Result** 15.2%

**Query** State the recorded Inhibition rate of each cytokine compared to CD150-stimulated EBV-t B cells (%) IL-13 for this entry: MSLPSPRDGRTDG (SIS-1#4 peptide)
**Result** 23.1%

**Query** Which Inhibition rate of each cytokine compared to CD150-stimulated EBV-t B cells (%) IL-13 value is on record for MSLPSPRDGRTDGRTDCTR (SIS-1 peptide) ?
**Result** 37.6%

**Query** So what's the measured Inhibition rate of each cytokine compared to CD150-stimulated EBV-t B cells (%) IL-13 for this one? RTDCTR (SIS-1#3 peptide)
**Result** 10.2%

**Query** // Inhibition rate of each cytokine compared to CD150-stimulated EBV-t B cells (%) IL-13 lookup, key: RDGRTDGRTD (SIS-1#8 peptide)
**Result** 33.5%

**Query** Query: Inhibition rate of each cytokine compared to CD150-stimulated EBV-t B cells (%) IL-13; subject: MSLPSP (SIS-1#1 peptide)
**Result** 15.0%

**Query** For the substance DGRTDG (SIS-1#9 peptide) , what Inhibition rate of each cytokine compared to CD150-stimulated EBV-t B cells (%) IL-13 is on record?
**Result** 13.2%

**Query** Which value of Inhibition rate of each cytokine compared to CD150-stimulated EBV-t B cells (%) IL-13 has been reported for RDGRTD (SIS-1#17 peptide) in the records?
**Result** 14.8%

----------
Assign Inhibition rate of each cytokine compared to CD150-stimulated EBV-t B cells (%) GM-CSF to each entry below.
tested on: GM-CSF; assay: Reduction of GM-CSF secretion in activated B cells (ELISA); format: cell-based; settings: 100 ng/me of peptide; EBV-infected B cells stimulated with anti-CD150; ELISA of culture supernatant
The figure you give is taken to be in %; do not add the unit.

**Query** Request the reported Inhibition rate of each cytokine compared to CD150-stimulated EBV-t B cells (%) GM-CSF associated with DGRTDG (SIS-1#9 peptide)
**Result** 15.0

**Query** What measured Inhibition rate of each cytokine compared to CD150-stimulated EBV-t B cells (%) GM-CSF goes with PSPRDGRTDG (SIS-1#6 peptide) ?
**Result** 21.2

**Query** For the substance shown here, RTDCTR (SIS-1#3 peptide) , give the reported Inhibition rate of each cytokine compared to CD150-stimulated EBV-t B cells (%) GM-CSF.
**Result** 7.2

**Query** Field request: Inhibition rate of each cytokine compared to CD150-stimulated EBV-t B cells (%) GM-CSF | item: MSLPSPRDGRTDGRTDCTR (SIS-1 peptide)
**Result** 60.5

**Query** Fill blank: measured Inhibition rate of each cytokine compared to CD150-stimulated EBV-t B cells (%) GM-CSF of the substance MSLPSPRDGRTDG (SIS-1#4 peptide) is ____.
**Result** 18.5

**Query** What value of Inhibition rate of each cytokine compared to CD150-stimulated EBV-t B cells (%) GM-CSF has been recorded for this entry: MSLPSP (SIS-1#1 peptide)
**Result** 18.0

**Query** I have this substance here, RDGRTD (SIS-1#17 peptide) , and I need its recorded Inhibition rate of each cytokine compared to CD150-stimulated EBV-t B cells (%) GM-CSF.
**Result** 14.8

**Query** Please look up its Inhibition rate of each cytokine compared to CD150-stimulated EBV-t B cells (%) GM-CSF: RDGRTDG (SIS-1#2 peptide)
**Result** 19.0

**Query** Would you mind telling me what Inhibition rate of each cytokine compared to CD150-stimulated EBV-t B cells (%) GM-CSF value was observed for RDGRTDGRTD (SIS-1#8 peptide) ?
**Result** 19.8

**Query** Query: Inhibition rate of each cytokine compared to CD150-stimulated EBV-t B cells (%) GM-CSF; subject: PSPRDG (SIS-1#5 peptide)
**Result** 7.5
